Taken from PubChem BioAssay.

assay: inhibitors of hydroxyurea-induced Chk1 phosphorylation, primary screen, imaging, HeLa, phospho-Chk1 antibody, percent positive cells (AID 1186); settings: hydroxyurea-induced phospho-Chk1 immunofluorescence imaging, higher = more signal
// map z-score to label using low-valued = under -0.2, mid-valued = from -0.2 up to 0.08, high-valued = 0.08 and over

Solved cases below.
>  <MOLECULE>
CC(C)C(O)C1C=CC2C(=O)N(C)C(=O)C2N1N(c1ccccc1)c1ccccc1 (stereo not given)

>  <ASSIGNED_CATEGORY>
high-valued

$$$$
>  <MOLECULE>
C=C1C2CC3C(=C4C(CO[C@@H]4[C@H]4CCCN4S(=O)(=O)c4ccccc4[N+](=O)[O-])C4C(=O)N(C)C(=O)C34)CC2C(=O)N1C (stereo not given in full)

>  <ASSIGNED_CATEGORY>
mid-valued

$$$$
>  <MOLECULE>
O=C1OCCC=C[C@H]2OC34C=CCN(c5ccc(Cl)cc5)C(=O)[C@H]3N(CCCCCO)C(=O)[C@@H]4C12 (stereo not given in full)

>  <ASSIGNED_CATEGORY>
high-valued

$$$$
>  <MOLECULE>
CC(C)(C)OC(=O)CC[C@@]1(C(=O)O)N=C(c2ccc(OCCCO)cc2)O[C@@H]1c1ccccc1CN=[N+]=[N-]

>  <ASSIGNED_CATEGORY>
mid-valued

$$$$
>  <MOLECULE>
COC(=O)[C@H](Cc1ccccc1)N1CC(/C=C/C2CC2)=C[C@@H]1[C@@H](O)Cc1ccccc1

>  <ASSIGNED_CATEGORY>
low-valued

$$$$

Query block: Exam item: assign C[C@H]1ON(c2ccc(C(=O)OC(C)(C)C)cc2)[C@@H](c2ccc(O)cc2)[C@@H]1C(=O)N1C(=O)OC[C@@H]1c1ccccc1 to the correct category.
Result block: high-valued

Query block: Check O=C1NC(=O)C2C1C=CC(C(O)c1ccc(Br)cc1)N2Nc1ccccn1 (stereo not given) too.
Result block: high-valued

Query block: Quick one: CN1C(=O)C2C=CC(C(O)Cc3ccccc3)N(N(c3ccccc3)c3ccccc3)C2C1=O (stereo not given)
Result block: mid-valued

Query block: Would you kindly repeat that for O=C(O)[C@]1(Cc2ccccc2)N=C(c2ccc(OCCCO)cc2)O[C@@H]1c1ccccc1 ?
Result block: high-valued

Query block: Also need O=C(CS)NCCCCCCNC(=O)[C@@H]1C[C@@H]2C(=O)N3CCC[C@H]3C(=O)N2[C@@H]1c1cccc(OCCO)c1 , thanks.
Result block: low-valued

Query block: Next up: [N-]=[N+]=NCc1ccccc1C[C@@]1(C(=O)N2CCCCC2)N=C(c2ccc(OCCCO)cc2)O[C@@H]1c1ccccc1N=[N+]=[N-]
Result block: low-valued

Query block: // next record C=C[C@@H](COC(C)=O)NS(=O)(=O)c1ccc(Br)cc1
Result block: low-valued

Query block: Check [N-]=[N+]=NCc1ccccc1C[C@@]1(C(N)=O)N=C(c2ccc(OCCCO)cc2)O[C@@H]1c1ccccc1CN=[N+]=[N-] too.
Result block: low-valued

----------
We begin with a simple list: items and their reported z-score.
assay: E. coli growth modulation, two-sided OD650, primary screen, E. coli filamentation project, strain DRC41, 24 h (AID 1093); details: OD650, 24 h, higher = more signal, called active from +8 up or from −8 down;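 note: MC1000 strain lacking acrAB efflux and sulA so SOS filamentation is blocked; test concentration not given here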
Number only, no unit.

>  <COMPOUND>
C=C(/C=C/CNS(=O)(=O)c1ccc(C)cc1)[C@H](O)[C@H]1CCCN1S(=O)(=O)c1ccccc1[N+](=O)[O-]

>  <z-score>
0.913

$$$$
>  <COMPOUND>
CN(C)CCCN1C(=O)[C@@]2(c3ccc([N+](=O)[O-])cc3)CC(=O)N(CC34CC5CC(CC(C5)C3)C4)[C@@H]2c2ccc(CO)cc21

>  <z-score>
0.304

$$$$
>  <COMPOUND>
COCCCNC(=O)[C@]1(Cc2ccccc2CN=[N+]=[N-])N=C(c2ccc(OCCCO)cc2)O[C@@H]1c1ccccc1

>  <z-score>
1.01

$$$$
>  <COMPOUND>
CCOC(=O)C1=CC[C@@H](c2ccccc2C(F)(F)F)N(S(=O)(=O)c2ccc(C)cc2)C1

>  <z-score>
-0.607

$$$$
>  <COMPOUND>
COc1ccc(C(O)C2C=CC3C(=O)N(c4ccccc4)C(=O)C3N2Nc2ccccc2)cc1OCc1ccccc1 (stereo unspecified)

>  <z-score>
-1.2

$$$$
>  <COMPOUND>
O=C1OCCC=C[C@H]2OC34C=CCN(c5ccc(Cl)cc5)C(=O)[C@H]3N(CCCCCO)C(=O)[C@@H]4C12 (stereo partly specified)

>  <z-score>
1.71

$$$$
>  <COMPOUND>
CC(C)CN1C(=O)[C@@]2(Cc3ccccc31)c1ccccc1C(=O)N(Cc1ccccc1C(F)(F)F)[C@H]2c1ccc(CO)cc1

>  <z-score>
-0.861

$$$$
>  <COMPOUND>
C=C(/C(=C/C[C@@H](OC(=O)c1ccncc1)c1ccccc1OCCO)c1cc(C(=O)OC)ccc1OC)C(C)C

>  <z-score>
0.616

$$$$
>  <COMPOUND>
O=C1O[C@@H](c2ccccc2)[C@@H](c2ccccc2)N2[C@@H](c3ccc(O)cc3)[C@]3(C(=O)Nc4ccc(C#CC5=CCCCC5)cc43)[C@@H](C(=O)N3CCN(c4ncccn4)CC3)[C@H]12

>  <z-score>
1.62

$$$$
>  <COMPOUND>
Cc1ccc(S[C@]2(C(=O)NCc3ccccc3)CC(=O)N(C(C)C)[C@@H]2c2ccc(CO)cc2I)cc1

>  <z-score>
0.349

$$$$

Query block: Fill in: z-score of O=C1O[C@@H](c2ccccc2)[C@@H](c2ccccc2)N2[C@@H](c3ccccc3OCCO)[C@]3(C(=O)Nc4ccc(C#CCCO)cc43)[C@@H](C(=O)Nc3nc4ccccc4s3)[C@H]12 is ___
Result block: 1.59
